Data export: Ki values recorded with Melatonin receptor type 1A (Homo sapiens, UniProt P48039).
Sequence (P48039 whole entry): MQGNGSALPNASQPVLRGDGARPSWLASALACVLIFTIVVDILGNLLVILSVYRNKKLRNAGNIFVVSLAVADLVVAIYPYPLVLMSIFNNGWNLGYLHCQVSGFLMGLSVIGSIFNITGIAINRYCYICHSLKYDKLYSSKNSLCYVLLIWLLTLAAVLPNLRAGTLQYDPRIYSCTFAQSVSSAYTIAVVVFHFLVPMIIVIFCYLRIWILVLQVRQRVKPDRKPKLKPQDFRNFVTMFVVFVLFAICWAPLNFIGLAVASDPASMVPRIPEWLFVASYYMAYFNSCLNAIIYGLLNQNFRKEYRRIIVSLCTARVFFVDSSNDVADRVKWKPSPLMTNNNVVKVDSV

Example entries and their recorded answers appear below.
In [3]: df
Out[3]:
                                   molecule  endpoint_result
0  CCC(=O)NCc1cc2c(OC)cccc2n1C(=O)c1ccc(Cl)cc1          > 10 µM
1  CCC(=O)NC1Cc2ccccc2C(c2ccccc2)C1 (stereo not drawn)         0.105 µM

Consider CCC(=O)NCc1cc2c(OC)cccc2n1S(=O)(=O)c1ccccc1 . Its measured Ki is > 10 µM

The measurements presented in this section are drawn from ChEMBL document CHEMBL1139541.
